TARGET OF ASSAY: CRBN-DDB1 (Homo sapiens (Human))
PROCEDURE SUMMARY: Compound binding to CRBN by HTRF assay
pEC50: −log10 of the molar value.
REPORTED PROPERTY: pEC50

Record excerpt, results attached:
INSERT INTO measurements (compound, target_of_assay, result) VALUES
  ('CC(C)(C(=O)NCc1cc(Cl)c(C2CCC(=O)NC2=O)c(Cl)c1)c1ccc2[nH]cnc2c1 (stereo not shown)', 'CRBN-DDB1 (Homo sapiens (Human))', 7.22),
  ('CC(C)(C(=O)NCc1cc(Cl)c(C2CCC(=O)NC2=O)c(Cl)c1)c1ccncc1F (stereo not shown)', 'CRBN-DDB1 (Homo sapiens (Human))', 6.96);

P. CC(C)(C(=O)NCc1cc(Cl)c(C2CCC(=O)NC2=O)c(Cl)c1)c1ncco1 (stereo not shown)
Q. CCn1ccc(C(C)(C)C(=O)NCc2cc(Cl)c(C3CCC(=O)NC3=O)c(Cl)c2)cc1=O (stereo not shown)
Request: Param pair: P , Q . Output: the one whose pEC50 is numerically greater. Indicate which entry you chose by stating its label.
Response: P

---

TARGET OF ASSAY: CRBN-DDB1 (Homo sapiens (Human), UniProt Q96SW2)
Sequence (Q96SW2 whole entry): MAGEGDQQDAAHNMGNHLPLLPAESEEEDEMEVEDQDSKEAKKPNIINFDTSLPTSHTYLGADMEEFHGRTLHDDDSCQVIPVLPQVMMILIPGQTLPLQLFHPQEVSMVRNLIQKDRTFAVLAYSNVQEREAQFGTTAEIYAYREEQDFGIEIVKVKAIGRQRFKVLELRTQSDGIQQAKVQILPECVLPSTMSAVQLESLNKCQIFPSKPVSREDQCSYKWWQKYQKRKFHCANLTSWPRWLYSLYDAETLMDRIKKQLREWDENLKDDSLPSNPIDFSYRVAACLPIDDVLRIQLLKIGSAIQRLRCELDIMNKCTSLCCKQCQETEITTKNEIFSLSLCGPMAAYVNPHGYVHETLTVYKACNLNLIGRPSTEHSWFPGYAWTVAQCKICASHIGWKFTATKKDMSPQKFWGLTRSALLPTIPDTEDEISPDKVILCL
Sequence (Q16531 whole entry partner): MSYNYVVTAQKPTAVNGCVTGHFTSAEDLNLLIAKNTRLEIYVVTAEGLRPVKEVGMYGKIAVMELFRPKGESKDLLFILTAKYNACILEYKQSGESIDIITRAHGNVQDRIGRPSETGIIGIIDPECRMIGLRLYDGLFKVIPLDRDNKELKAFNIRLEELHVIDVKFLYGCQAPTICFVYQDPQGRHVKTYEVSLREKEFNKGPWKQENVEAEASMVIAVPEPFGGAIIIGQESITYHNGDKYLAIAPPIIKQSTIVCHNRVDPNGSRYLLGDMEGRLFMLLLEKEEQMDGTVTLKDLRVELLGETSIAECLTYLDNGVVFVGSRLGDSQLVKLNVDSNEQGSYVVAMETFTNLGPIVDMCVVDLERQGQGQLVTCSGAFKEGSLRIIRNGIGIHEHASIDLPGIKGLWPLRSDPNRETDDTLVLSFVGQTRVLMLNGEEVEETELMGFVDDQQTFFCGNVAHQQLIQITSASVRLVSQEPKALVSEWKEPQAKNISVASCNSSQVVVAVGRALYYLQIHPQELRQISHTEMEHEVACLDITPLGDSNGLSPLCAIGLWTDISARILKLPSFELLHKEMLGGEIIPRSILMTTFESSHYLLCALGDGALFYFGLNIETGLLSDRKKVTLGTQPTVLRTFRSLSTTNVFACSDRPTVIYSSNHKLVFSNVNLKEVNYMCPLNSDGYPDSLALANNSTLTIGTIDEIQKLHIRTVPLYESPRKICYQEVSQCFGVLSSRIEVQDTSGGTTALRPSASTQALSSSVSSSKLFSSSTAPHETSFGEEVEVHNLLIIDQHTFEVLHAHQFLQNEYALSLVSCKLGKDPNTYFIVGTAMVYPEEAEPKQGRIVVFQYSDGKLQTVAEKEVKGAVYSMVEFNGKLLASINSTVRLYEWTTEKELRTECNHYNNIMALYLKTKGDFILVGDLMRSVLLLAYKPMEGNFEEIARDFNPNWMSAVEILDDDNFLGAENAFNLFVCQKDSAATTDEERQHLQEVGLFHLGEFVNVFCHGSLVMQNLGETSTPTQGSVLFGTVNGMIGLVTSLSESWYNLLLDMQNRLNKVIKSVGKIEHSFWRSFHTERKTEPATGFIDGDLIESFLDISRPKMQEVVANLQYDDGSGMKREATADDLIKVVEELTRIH
PROCEDURE SUMMARY: Compound binding to CRBN by HTRF assay
TEST CONTEXT: HTRF class; Cereblon binding
Listing of recorded EC50 by entry.

Record excerpt, results attached:
INSERT INTO assay_data (compound, reported_property, result) VALUES
  ('CC(C)(C(=O)NCc1cc(Cl)c([C@@H]2CCC(=O)NC2=O)c(Cl)c1)c1ncc(C#N)cn1 (single isomer, unassigned) [Compound 152]', 'EC50', '100 to 1000 nM'),
  ('CC(C)(C(=O)NCc1cc(Cl)c(C2CCC(=O)NC2=O)c(Cl)c1)c1ccncc1F (stereo not drawn) [Compound 88]', 'EC50', '100 to 1000 nM'),
  ('Cc1cnc(C(C)(C)C(=O)NCc2cc(C)c(C3CCC(=O)NC3=O)c(Cl)c2)nc1 (stereo not drawn) [Compound 271]', 'EC50', '100 to 1000 nM');

Request: Which EC50 reading was recorded for the compound CCc1cnc(C(C)(C)C(=O)NCc2cc(Cl)c(C3CCC(=O)NC3=O)c(Cl)c2)cn1 (stereo not drawn) [Compound 247] ?
Response: 100 to 1000 nM

Request: Then this compound: CC(C)(C(=O)NCc1cc(Cl)c(C2CCC(=O)NC2=O)c(Cl)c1)c1ccc(NS(C)(=O)=O)cc1 (stereo not drawn) [Compound 50]
Response: 100 to 1000 nM

Request: Then this compound: CC(C)(C(=O)NCc1cc(Cl)c(C2CCC(=O)NC2=O)c(Cl)c1)c1ccc2ncoc2n1 (stereo not drawn) [Compound 184]
Response: 100 to 1000 nM

Request: Then this compound: CC(C)(C(=O)NCc1cc(F)c(C2CCC(=O)NC2=O)c(Cl)c1)c1nc2ccccc2o1 (stereo not drawn) [Compound 249]
Response: ≤ 100 nM

Request: Then this compound: CC(C)(C(=O)NCc1cc(Cl)c([C@@H]2CCC(=O)NC2=O)c(Cl)c1)c1ncccn1 (single isomer, unassigned) [Compound 179]
Response: > 1000 nM

Request: Then this compound: CC(C)(C(=O)NCc1cc(Cl)c(C2CCC(=O)NC2=O)c(Cl)c1)c1cc2cccnc2cn1 (stereo not drawn) [Compound 190]
Response: ≤ 100 nM

Request: Then this compound: CC(F)(F)c1cnc(C(C)(C)C(=O)NCc2cc(F)c(C3CCC(=O)NC3=O)c(Cl)c2)cn1 (stereo not drawn) [Compound 255]
Response: ≤ 100 nM

# credit: patent US20250243180A1
